Tested on: Wolbachia pipientis
Assay: Anti-Wolbachia Cell-Based Screen
Type: functional
Parameters: scale not given: in the data most compounds retested in dose-response had high values
Settings: 5 µM
The whole screen tested about 48,000 compounds, of which about 13,000 (27%) showed an effect of 50% or more. The list shows a part of the results.

compound | measured on | Percent Effect, %
CCOCC1CC2(CCN(C(=O)C3CC=CC3)CC2)CO1 (stereo not given) | Wolbachia pipientis | -13.65
Cc1ccc(=O)n(CC2(O)CCN(Cc3cc(C)c(O)c(C)c3)CC2)n1.O=C(O)CC(O)(CC(=O)O)C(=O)O | Wolbachia pipientis | -13.33
COc1cccc(-c2cnc3n2CCC32CCN(S(C)(=O)=O)CC2)c1 | Wolbachia pipientis | -9.63
Cn1cc(CN2CCC3(CC(=O)N(c4ccc5c(c4)OCO5)C3)C2)cn1.O=C(O)C(F)(F)F (stereo not given) | Wolbachia pipientis | -18.04
Fc1ccc(CN2CCC3(CC2)CCN(Cc2nccs2)CC3)cc1.O=C(O)C(F)(F)F.O=C(O)C(F)(F)F | Wolbachia pipientis | 3.556
CCN(Cc1cccc(C(=O)Nc2cn(C)nn2)c1)[C@H]1COC[C@@H]1O | Wolbachia pipientis | 20.02
NC(=O)c1cnc(NC2CCC(c3ccccc3)CC2)c(Cl)c1 (stereo not given) | Wolbachia pipientis | -13.17
CCC(CNC(=O)CNC(C)=O)Oc1cccc(F)c1 (stereo not given) | Wolbachia pipientis | -13.27
CCCc1nc(CN(C)CCOc2ccccc2)cs1 | Wolbachia pipientis | -8.28
Cc1ccc(C(C)NCc2cn(CCC(N)=O)c3ccccc23)cc1C (stereo not given) | Wolbachia pipientis | -0.5436

###

System: Wolbachia pipientis
Assay: Anti-Wolbachia Cell-Based Screen
Format: functional
Set-up: scale not given: in the data most compounds retested in dose-response had high values
Conditions: 5 µM
In all, about 48,000 compounds went through this assay and about 13,000 (27%) showed an effect of 50% or more. The list shows a part of the results.
metric: Percent Effect (%)

compound | measured number
Cn1nc(C2CCCC2)c(-c2ccc3c(c2)OCO3)c1N | -8.229
COCC1CN(S(=O)(=O)Cc2ccc(C)cc2)Cc2c1cnn2C.O=C(O)C(F)(F)F (centres undefined) | -11.46
CN1CC2(CCN(Cc3cc(Cl)ccc3OCC(=O)O)CC2)OC1=O | -19.61
Cc1cccc(N2CCC3(CCCN3Cc3cn(C)nc3C)CC2)n1 | -1.763
Cl.Cn1cc(CN2CCN(CC3(c4ccccc4)CC3)CC2)cn1 | 82.02
Cc1ccc(Br)c(S(=O)(=O)NCc2cnn(C)c2)c1 | -6.157
O=C(c1cn(-c2cc(N3CCSCC3)ncn2)cn1)N1CCOCC1 | 2.163
CNC(=O)C1(N(C)CCc2ccccc2)Cc2ccccc2C1 | 30.02
O=C(C1CCCC1)N1CCC(c2n[nH]c3nccnc23)CC1 | 136.1
Cn1ncnc1-c1ccnc(NCc2ccncc2)n1 | 2.269
CCc1nn(C)c(Cl)c1CN1CCC2(C1)CN(C)C(=O)O2 (centres undefined) | 121.6
Cc1nn(C)cc1CN1CCN(CC2(c3ccccc3)CC2)CC1 | 110.9
COC(CNC(=O)c1ccoc1)c1cccc(Cl)c1 (centres undefined) | -9.296
COc1ccc(S(=O)(=O)NC(=O)c2c(C)noc2C(C)C)cc1C | -2.008
Cc1cnc(CNc2ncc(C)c(-c3cnn(C)c3)n2)cn1 | 99.76
Cn1cc(-c2nc(CNCCn3cccn3)cs2)cn1 | 1.057
Cc1ccc(CCNc2ncc(C)c(-c3ccnn3C)n2)s1 | -9.646
Cc1nn(-c2ccccn2)c(C)c1[C@@H]1C=C[C@@H](NC(=O)NC(C)C)C1 | 4.559
Cn1cc(-c2ccnc(NCC3CCN(Cc4ccccc4)C3)n2)cn1 (centres undefined) | 1.277
Cc1cnc(NCc2cnn(C)c2)nc1-c1cnn(C)c1 | 107.4
CCNc1ncc(C)c(-c2cnn(C)c2)n1 | 108.7
C=Cn1cc(CN2CCN(CC3(c4ccccc4)CC3)CC2)c(C)n1 | 101.3
Cc1cnc(CNCc2cnc(-c3ccccc3C)s2)cn1 | 2.85
Cc1ccc(C2(CN3CCN(Cc4cn(C)nc4C)CC3)CC2)cc1.Cl | 115.4
